- TARGET DESC: EGFR (Human), P00533 [T790M/L858R]
- Sequence (P00533 whole entry T790M/L858R, looked up): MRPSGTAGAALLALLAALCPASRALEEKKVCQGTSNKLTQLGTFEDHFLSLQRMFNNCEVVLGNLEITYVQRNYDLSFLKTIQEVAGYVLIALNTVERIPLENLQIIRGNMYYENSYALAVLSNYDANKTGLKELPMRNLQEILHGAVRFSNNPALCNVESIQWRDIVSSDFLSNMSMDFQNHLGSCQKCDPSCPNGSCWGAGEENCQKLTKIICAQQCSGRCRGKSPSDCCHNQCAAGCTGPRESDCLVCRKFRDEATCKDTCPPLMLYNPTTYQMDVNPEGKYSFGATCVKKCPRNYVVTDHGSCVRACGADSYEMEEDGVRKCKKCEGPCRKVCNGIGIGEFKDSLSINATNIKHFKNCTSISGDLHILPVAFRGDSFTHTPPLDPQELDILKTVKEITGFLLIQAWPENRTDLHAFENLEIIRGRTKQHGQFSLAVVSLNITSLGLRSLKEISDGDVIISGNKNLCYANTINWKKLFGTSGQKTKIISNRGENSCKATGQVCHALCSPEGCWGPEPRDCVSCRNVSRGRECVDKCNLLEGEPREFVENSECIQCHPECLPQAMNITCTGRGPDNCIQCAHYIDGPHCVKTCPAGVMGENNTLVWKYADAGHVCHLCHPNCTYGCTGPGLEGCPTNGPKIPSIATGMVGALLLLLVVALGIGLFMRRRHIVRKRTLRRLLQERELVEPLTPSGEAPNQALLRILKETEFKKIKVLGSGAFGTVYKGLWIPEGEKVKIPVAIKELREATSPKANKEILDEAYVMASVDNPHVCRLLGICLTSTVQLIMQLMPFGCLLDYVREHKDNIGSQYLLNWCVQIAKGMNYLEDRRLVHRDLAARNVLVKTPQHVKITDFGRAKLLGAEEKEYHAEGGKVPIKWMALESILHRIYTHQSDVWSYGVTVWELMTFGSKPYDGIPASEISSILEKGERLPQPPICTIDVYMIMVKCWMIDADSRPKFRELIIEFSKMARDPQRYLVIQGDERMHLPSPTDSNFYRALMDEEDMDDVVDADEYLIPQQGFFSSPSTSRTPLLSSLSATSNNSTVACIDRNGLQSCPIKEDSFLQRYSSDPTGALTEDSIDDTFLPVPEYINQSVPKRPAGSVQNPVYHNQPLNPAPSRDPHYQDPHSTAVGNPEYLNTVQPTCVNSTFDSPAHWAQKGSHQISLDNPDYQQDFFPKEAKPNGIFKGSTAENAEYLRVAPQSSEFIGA
- CONDITIONS USED: nci-h1975
REPORTED METRIC: EC50

Consider the molecule CC1COCC(C)N1c1nn(C(C)C)c2cc(Nc3ccnc(-c4cnn(S(=O)(=O)C5CC5)c4)n3)ncc12 (stereo unspecified) and give its measured EC50.
> 10 µM

Consider the molecule CC(C)n1nc(F)c2cnc(Nc3ccnc(-c4cnn(S(=O)(=O)C5CC5)c4)n3)cc21 and give its measured EC50.
> 10 µM

Consider the molecule CC(C)n1nc(NC2CNC(=O)C2)c2cnc(Nc3ccnc(N4CCC(C)(O)CC4)n3)cc21 (stereo unspecified) and give its measured EC50.
> 10 µM

New cases:
Consider the molecule COCC1CN(c2nn(C(C)C)c3cc(Nc4ccnc(-c5cnn(S(=O)(=O)C6CC6)c5)n4)ncc23)C1 and give its measured EC50.
0.0209 µM

Consider the molecule CC(C)n1nc(N2C[C@H](O)[C@@H](O)C2)c2cnc(Nc3ccnc(N4CCC(C)(O)CC4)n3)cc21 and give its measured EC50.
> 10 µM

Consider the molecule CCC(C)n1nc(N2CC[C@H](O)C2=O)c2cnc(Nc3ccnc(N4CC[C@@H](O)[C@@H](F)C4)n3)cc21 (stereo partly specified) and give its measured EC50.
> 10 µM

// provenance: the Kinase Knowledgebase extract (Sharma et al. 2016)
